Where do these numbers come from? They come from patent US20240246905A1.

Listing: zone of inhibition at 500 µg/mL of selected molecules
test system: various Staphylococcus aureus strains; test: Disc diffusion, Staphylococcus aureus strain study; assay type: cell-based; conditions: Staphylococcus aureus, strain Sa_TPS 3104; 500 μg/mL
MEASUREMENT TYPE: zone of inhibition at 500 µg/mL (mm)

- [C-]#[N+]C=Cc1ccc(O)c(Br)c1 [Compound 14]: 22
- [C-]#[N+]C=Cc1ccc(O)cc1 [Compound 2, 4-(2-Isocyanovinyl)phenol]: 15
- [C-]#[N+]C=Cc1cc(Br)ccc1O [Compound 13]: 22
- [C-]#[N+]/C=C/c1ccc(O)cc1/C=C/c1ccccc1 [Compound 36]: 32
- [C-]#[N+]/C=C/c1ccc(NC(C)=O)cc1/C=C/c1ccccc1 [Compound 41]: 28

====

system: various Staphylococcus aureus strains; test: Disc diffusion, Staphylococcus aureus strain study; format: cell-based; conditions: Staphylococcus aureus, strain Sa_TPS 3097; 500 μg/mL
Label NO if zone of inhibition at 500 µg/mL falls below 20 mm; label YES in every other case.

• [C-]#[N+]C=Cc1ccc(O)cc1 = NO
• [C-]#[N+]C=Cc1ccc(O)c(Br)c1 = NO
• [C-]#[N+]/C=C/c1ccc(O)cc1/C=C/c1ccccc1 = YES
• [C-]#[N+]/C=C/c1ccc(NC(C)=O)cc1/C=C/c1ccccc1 = YES

====

Listing: zone of inhibition at 500 µg/mL of selected compounds
system: various Staphylococcus aureus strains; assay: Disc diffusion, Staphylococcus aureus strain study; format: cell-based; conditions: Staphylococcus aureus, strain EOE 3; 500 μg/mL
MEASUREMENT TYPE: zone of inhibition at 500 µg/mL

• [C-]#[N+]C=Cc1cc(Br)ccc1O [Compound 13] = 24 mm
• [C-]#[N+]C=Cc1ccc(O)cc1 [Compound 2, 4-(2-Isocyanovinyl)phenol] = 12 mm
• [C-]#[N+]/C=C/c1ccc(O)cc1/C=C/c1ccccc1 [Compound 36] = 30 mm
• [C-]#[N+]C=Cc1ccc(O)c(Br)c1 [Compound 14] = 20 mm
• [C-]#[N+]/C=C/c1ccc(NC(C)=O)cc1/C=C/c1ccccc1 [Compound 41] = 26 mm

====

tested on: various Staphylococcus aureus strains; test: Disc diffusion, Staphylococcus aureus strain study; type: cell-based; settings: Staphylococcus aureus, strain ASARM 73; 500 μg/mL
Listing: zone of inhibition at 500 µg/mL of selected compounds
MEASUREMENT TYPE: zone of inhibition at 500 µg/mL (mm)

• [C-]#[N+]/C=C/c1ccc(NC(C)=O)cc1/C=C/c1ccccc1 = 27
• [C-]#[N+]C=Cc1ccc(O)cc1 = 16
• [C-]#[N+]C=Cc1cc(Br)ccc1O = 20
• [C-]#[N+]/C=C/c1ccc(O)cc1/C=C/c1ccccc1 = 29
• [C-]#[N+]C=Cc1ccc(O)c(Br)c1 = 20

====

test system: various Staphylococcus aureus strains; experiment: Disc diffusion, Staphylococcus aureus strain study; assay type: cell-based; settings: Staphylococcus aureus, strain EOE 35; 500 μg/mL
MEASUREMENT TYPE: zone of inhibition at 500 µg/mL

• [C-]#[N+]/C=C/c1ccc(NC(C)=O)cc1/C=C/c1ccccc1 = 28 mm
• [C-]#[N+]C=Cc1ccc(O)cc1 = 14 mm
• [C-]#[N+]C=Cc1cc(Br)ccc1O = 22 mm
• [C-]#[N+]C=Cc1ccc(O)c(Br)c1 = 18 mm
• [C-]#[N+]/C=C/c1ccc(O)cc1/C=C/c1ccccc1 = 32 mm
